// provenance: patent US20250066335A1

studyTarget: GPR84 (Homo sapiens)
Sequence (Q9NQS5 whole entry): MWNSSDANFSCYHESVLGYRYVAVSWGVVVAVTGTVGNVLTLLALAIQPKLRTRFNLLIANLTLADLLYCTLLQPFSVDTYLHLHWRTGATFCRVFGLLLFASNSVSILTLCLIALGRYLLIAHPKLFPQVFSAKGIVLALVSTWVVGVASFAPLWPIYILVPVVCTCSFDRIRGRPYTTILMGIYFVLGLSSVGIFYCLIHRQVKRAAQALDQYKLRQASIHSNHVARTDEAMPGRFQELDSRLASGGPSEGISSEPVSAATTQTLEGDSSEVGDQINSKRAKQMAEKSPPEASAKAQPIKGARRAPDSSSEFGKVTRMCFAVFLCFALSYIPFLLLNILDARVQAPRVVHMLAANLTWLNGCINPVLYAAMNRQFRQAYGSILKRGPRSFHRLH
measurementDescription: PRESTO-Tango β-arrestin2 recruitment assay, GPR84 antagonistic activity
cond: antagonist activity in the Presto-TANGO assay; inhibition of the response from the agonist ZQ-16 (100 nM); HTLA cells
readoutName: IC50 (nM)

CCOc1ccc(CCc2nc(OCC3CCCCO3)cc(O)c2C#N)cc1 (stereo not drawn) [Example 4] | 145
CCCc1ccc(CCc2nc(OCC3CCCCO3)cc(O)c2-c2ccc(C)cc2)cc1 (stereo not drawn) [Example 10] | 66.1
CCc1c(O)cc(OCC2COCCO2)nc1CCc1ccc(OCc2nc(C)no2)cc1 (stereo not drawn) [Example 40] | 2.95
CCCc1ccc(CCc2nc(OCC3CCCCO3)cc(O)c2-c2ccc(O)cc2)cc1 (stereo not drawn) [Example 17] | 93.3

1: CCOc1ncc(CCc2nc(OCC3COCCO3)cc(O)c2CC)cc1F (stereo not drawn) [Example 50]
2: CCOc1ccc(-c2ccc3c(O)cc(OCC4CCCCO4)nc3c2)cc1 (stereo not drawn) [Example 5]
3: CCc1c(O)cc(OCC2COCCO2)nc1CCc1ccc(OCCOc2ccccc2)cc1 (stereo not drawn) [Example 38]
4: CCCc1ccc(CCc2nc(OCC3CCCCO3)cc(O)c2CCC(=O)OCC)cc1 (stereo not drawn) [Example 13]
5: CCc1c(O)cc(OCC2COCCO2)nc1CCc1ccc(OCCOCCNC(=O)OC(C)(C)C)cc1 (stereo not drawn) [Example 34]
Sort entries by IC50 from minimum to maximum value. Provide the labels, sequenced as the question asks.
3, 5, 1, 4, 2
